Below, each entry is listed with its recorded yeast fitness.
B1: tRNA (parent)
chain: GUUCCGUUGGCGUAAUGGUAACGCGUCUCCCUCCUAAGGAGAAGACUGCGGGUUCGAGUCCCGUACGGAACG

# Variants of: B1
# assay: yeast fitness relative to wild type (ratio to wild type); higher = fitter; tRNA-Arg(CCU), competitive growth, 37 C, YPD
Variants at the floor of the assay were thinned out.
readoutName: yeast fitness

In [3]: df
Out[3]:
                          mutationname    readoutname  resultoperator  readoutvalue
 0                  C4U A14C C55U G58C  yeast fitness               =         0.595
 1                           G10A U26A  yeast fitness               =         0.731
 2  U13C A20G C49A U59C C62U A65U A70C  yeast fitness               =          0.53
 3                           C31U C60U  yeast fitness               =         0.841
 4                           G23C U54C  yeast fitness               =         0.502
 5                       C4G C24A A42G  yeast fitness               ≤           0.5
 6            C22A C24G A36G G39C C55U  yeast fitness               ≤           0.5
 7              C4G G6A C22G C62U A70C  yeast fitness               ≤           0.5
 8            A21C C24G U32A A42C A65U  yeast fitness               =         0.543
 9            G25U A36U G56C A65C C66U  yeast fitness               ≤           0.5
10                           U28G C60G  yeast fitness               =         0.603
11                           A43C C61A  yeast fitness               =         0.776
12              C5G U7C G56A A57U C62G  yeast fitness               ≤           0.5
13                           A42U G63A  yeast fitness               =         0.868
14                      G12C A20U C22A  yeast fitness               =         0.927
15                      U13G A65C A70G  yeast fitness               =         0.619
16                       U8C A21G A42G  yeast fitness               =         0.675
17                           C22U A70G  yeast fitness               =         0.784
18                 A20G C27G A42C C55A  yeast fitness               ≤           0.5
19                      U13G G25A U59C  yeast fitness               =         0.681
20        U2C U19A C24U G38A U54C C66A  yeast fitness               ≤           0.5

All values here come from the RNAGym collection of RNA variant scans (doi:10.1126/science.aae0568).
